# System: SK-OV-3 ovarian
# assay-remarks: NCI tumour cell line growth inhibition, 48 h
For each of the compounds below, state its TGI.

Entry COc1ccc(Cc2nc3cc(C(F)(F)F)ccc3n2C[C@@H]2CCCN3CCCCC23)cc1 (stereo partly drawn) ; assay system SK-OV-3 ovarian; TGI recorded at 28.4 µM

Sample COc1cc(Br)c(C2OCCCO2)cc1OCc1ccccc1 , system: SK-OV-3 ovarian. Its TGI is > 100 µM

Log: SK-OV-3 ovarian, compound OC1(c2ccccc2)c2ccccc2N(c2ccccc2)c2ccc(Cl)cc21 (stereo not drawn) , TGI = 1.39 µM

// returns TGI for CC(C)c1c(C(=O)Nc2ccccc2)c(-c2ccccc2)c(-c2ccc(F)cc2)n1CC[C@@H](O)C[C@@H](O)CC(=O)O with SK-OV-3 ovarian; value = > 100 µM

Hey, SK-OV-3 ovarian data for CC(=O)OC(C(=O)NNC(=O)OC(C)(C)C)c1ccccc1 (stereo not drawn) : TGI came out at > 100 µM

Value sought: TGI, system SK-OV-3 ovarian, item Nc1nc(-c2ccccn2)c(-c2ccc3ncccc3n2)s1 . Result: > 25 µM

So the reported TGI for CC(C)CC(=O)O[C@H]1C(=O)O[C@@H]2C[C@H]3[C@H](C)C(=O)C(O[C@@H]4O[C@H](CO)[C@@H](O)[C@H](O)[C@H]4O)=C[C@]3(C)[C@H]3[C@@H](O)[C@H](O)[C@]4(C(=O)O)OC[C@]32[C@@H]14 , on SK-OV-3 ovarian, turned out to be > 100 µM

Item: COc1cc(Nc2nc(NS(=O)(=O)c3cc(C)c(Cl)cc3S)n[nH]2)cc(OC)c1OC | System: SK-OV-3 ovarian | TGI: > 100 µM
